Tested on: A498
Test: NCI in vitro 60-cell drug screen (SRB assay)
Type: cell-based
Conditions: A498 (Renal cancer); 10^-5 molar concentration; 48 hours
I'd appreciate it if you could supply Growth percent values for the items below.
Answers are plain numbers, in %.

Please state, for each entry, its recorded Growth percent.
1. O=c1c2cc(Cl)ccc2sc2c(N3CCN(c4ccccc4)CC3)nc3ccccc3c12
2. O=c1c2cc(Cl)ccc2sc2c(N3CCN(Cc4ccccc4)CC3)nc3ccccc3c12
3. CN1CCN(c2nc3ccccc3c3c(=O)c4cc(Cl)ccc4sc23)CC1
4. O=c1c2cc(Cl)ccc2sc2c(N3CCN(CCO)CC3)nc3ccccc3c12

1: 81.04; 2: 94.17; 3: 79.33; 4: 62.20

---

Tested on: LOX IMVI
Assay: NCI in vitro 60-cell drug screen (SRB assay)
Format: cell-based
Conditions: LOX IMVI (Melanoma); 10^-5 molar concentration; 48 hours
Lab note: cut-off is 90%. Strictly less in Growth percent is true (1). Exactly 90% or more is false (0).

Completed entries (count: 2):
O=c1c2cc(Cl)ccc2sc2c(N3CCN(c4ccccc4)CC3)nc3ccccc3c12; false (0)
CN(C)c1nc2ccccc2c2c(=O)c3cc(Cl)ccc3sc12; true (1)

Is 90% strictly greater than the compound's reported Growth percent? compound: O=c1c2cc(Cl)ccc2sc2c(N3CCN(Cc4ccccc4)CC3)nc3ccccc3c12 false (0)

---

Give Growth percent for every item shown.
System: LOX IMVI
Test: NCI in vitro 60-cell drug screen (SRB assay)
Assay type: cell-based
Conditions: LOX IMVI (Melanoma); 10^-5 molar concentration; 48 hours
One number for each entry, in %.

O=c1c2ccc(Cl)cc2sc2c(Cl)nc3ccccc3c12; 90.53
CN1CCN(c2nc3ccccc3c3c(=O)c4cc(Cl)ccc4sc23)CC1; 87.47
O=C(O)c1c(Sc2ccc(Cl)cc2)c(O)nc2ccccc12; 90.46
COc1nc2ccccc2c2c(=O)c3cc(Cl)ccc3sc12; 91.21
O=c1c2cc(Cl)ccc2sc2c(O)nc3ccccc3c12; 92.07

Please report Growth percent for every entry that follows.
1. O=c1c2cc(Cl)ccc2sc2c(N3CCN(CCO)CC3)nc3ccccc3c12
2. O=c1c2cc(Cl)ccc2sc2c(N3CCOCC3)nc3ccccc3c12

1. 87.79
2. 89.82
